Reference for the values: patent US20150239980A1

Target: T1, human MCAM (melanoma cell adhesion molecule) expressed on transfected CHO cells (human, UniProt P43121 24-646)
T1 construct: also called hMCAM; CD146
T1 chain: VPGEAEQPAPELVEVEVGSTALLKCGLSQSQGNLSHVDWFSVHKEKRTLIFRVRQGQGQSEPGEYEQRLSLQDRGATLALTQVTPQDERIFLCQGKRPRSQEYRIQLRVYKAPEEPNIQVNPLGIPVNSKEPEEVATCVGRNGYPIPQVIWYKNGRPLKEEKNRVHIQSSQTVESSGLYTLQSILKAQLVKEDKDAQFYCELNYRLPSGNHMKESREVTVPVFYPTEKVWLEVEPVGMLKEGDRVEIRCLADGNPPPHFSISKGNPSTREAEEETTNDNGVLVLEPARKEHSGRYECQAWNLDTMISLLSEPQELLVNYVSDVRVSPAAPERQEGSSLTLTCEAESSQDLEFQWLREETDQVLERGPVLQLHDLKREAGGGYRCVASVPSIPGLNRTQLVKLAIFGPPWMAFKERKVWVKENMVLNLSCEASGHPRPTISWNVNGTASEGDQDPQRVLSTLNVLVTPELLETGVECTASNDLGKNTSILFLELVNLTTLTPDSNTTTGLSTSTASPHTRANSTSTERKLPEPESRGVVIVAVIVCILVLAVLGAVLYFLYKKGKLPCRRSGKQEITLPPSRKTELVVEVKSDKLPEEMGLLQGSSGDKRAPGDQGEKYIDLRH
Test: laminin/FACS on hMCAM CHO cells, competitor laminin 411; Expt#2; reference row with 1.0 is chimeric 2107
Mark satisfied only for fold over rodent (blocking, laminin/FACS) values smaller than 2 fold; exact matches and larger values are not satisfied.

>>> classification("h2107_VH1 + h2107_VL2 (antibody, human IgG1, V domains shown, also called VH1VL2) VH: QVTLKESGPVLVKPTETLTLTCTVSGFSLTSNGVSWVRQPPGKALEWIAAISSGGSTYYNSAFKSRLTISRDTSKSQVVLTMTNMDPVDTATYYCARHRPFYFDYWGQGTLVTVSS VL: DIQMTQSPSSLSASVGDRVTITCKGSQNIYKSLAWFQLKPGKVPKLLIYDANSLQTGIPSRFSGSGSGTDFTLTISSLQPEDVATYYCQQYYSGYTFGGGTKVEIK")
"satisfied"
>>> classification("h2107_VH1 + h2107_VL1 (antibody, human IgG1, V domains shown) VH: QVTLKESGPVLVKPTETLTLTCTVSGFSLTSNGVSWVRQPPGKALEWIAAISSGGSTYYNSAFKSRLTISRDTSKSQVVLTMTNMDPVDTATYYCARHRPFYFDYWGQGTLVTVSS VL: DIQMTQSPSSLSASVGDRVTITCKGSQNIYKSLAWFQQKPGKVPKLLIYDANSLQTGIPSRFSGSGSGTDFTLTISSLQPEDVATYYCQQYYSGYTFGGGTKVEIK")
"not satisfied"
>>> classification("h2107_VH2 + h2107_VL2 (antibody, human IgG1, V domains shown, also called h2107VH2VL2; VH2VL2) VH: QVTLKESGPVLVKPTETLTLTCTVSGFSLTSNGVSWVRQPPGKALEWIAAISSGGSTYYNSAFKSRLSISRDTSKSQVVLTMTNMDPVDTATYYCARHRPFYFDYWGQGTLVTVSS VL: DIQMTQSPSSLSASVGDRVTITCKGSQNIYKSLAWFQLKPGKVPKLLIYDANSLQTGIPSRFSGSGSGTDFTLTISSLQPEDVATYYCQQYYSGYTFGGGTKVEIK")
"satisfied"
>>> classification("h2107_VH5 + h2107_VL2 (antibody, human IgG1, V domains shown) VH: QVTLKESGPVLVKPTETLTLTCTVSGFSLTSQGVSWVRQPPGKALEWIAAISSGGSTYYNSAFKSRLTISPDTSKSQVVLTMTNMDPVDTATYYCARHRPFYFDYWGQGTLVTVSS VL: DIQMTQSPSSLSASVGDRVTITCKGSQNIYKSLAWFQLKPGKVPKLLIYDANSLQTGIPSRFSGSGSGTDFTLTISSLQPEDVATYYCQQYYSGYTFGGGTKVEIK")
"satisfied"

Read the next record carefully.
**Query** Please let me know if h2107_VH6 + h2107_VL2 (antibody, human IgG1, V domains shown) VH: QVTLKESGPVLVKPTETLTLTCTVSGFSLTSNAVSWVRQPPGKALEWIAAISSGGSTYYNSAFKSRLTISRDTSKSQVVLTMTNMDPVDTATYYCARHRPFYFDYWGQGTLVTVSS VL: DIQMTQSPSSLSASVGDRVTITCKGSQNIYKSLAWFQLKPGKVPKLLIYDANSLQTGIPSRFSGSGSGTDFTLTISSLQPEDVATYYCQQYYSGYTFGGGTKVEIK shows fold over rodent (blocking, laminin/FACS) below 2 fold.
**Result** not satisfied
